Reported bioavailability by item:
test: Oral bioavailability in rat at 5 mg/kg; assay type: ADME, organism-based; conditions: in vivo
Enter your answer as a number in %; do not include the unit.

Solved entries:
Cc1ccncc1-c1nn(C)c2nc(OCc3ccccn3)cnc12
28
CCN(CC)C(=O)c1nn(C)c2nc(OCc3ccccn3)cnc12
35

Shifting focus to the molecule that follows.
Query bioavailability for `C[C@@H]1CCCN1C(=O)c1nn(C)c2nc(OCc3ccccn3)ccc12` 0.4

====

Attribute: Papp A→B
assay: Apparent passive permeability from apical to basolateral side in dog RRCK cells; assay type: ADME, cell-based, Canis lupus familiaris, MDCKII-LE; conditions: MDCK

Example molecules with recorded Papp A→B:
Cn1nc(-c2ncccc2OC(F)F)c2ncc(OCc3ccccn3)nc21
28.7 ×10⁻⁶ cm/s
Cn1nc(-c2cccnc2)c2ncc(OCc3ccccn3)nc21
22.5 ×10⁻⁶ cm/s

In the following, a different molecule is considered.
Return reported Papp A→B. Input molecule: `CCN(CC)C(=O)c1nn(C)c2nc(OCc3ccccn3)cnc12` 31.5 ×10⁻⁶ cm/s
